meta.source: patent US12692261B2

// IC50 lookup, one value per entry
Target: wild-type Epidermal Growth Factor Receptor (EGFR) (Homo sapiens)
Construct: a fragment of human EGFR (amino acids R669 to A1210); made in house; host or cells: Sf9 insect cells
Sequence (P00533 669-1210): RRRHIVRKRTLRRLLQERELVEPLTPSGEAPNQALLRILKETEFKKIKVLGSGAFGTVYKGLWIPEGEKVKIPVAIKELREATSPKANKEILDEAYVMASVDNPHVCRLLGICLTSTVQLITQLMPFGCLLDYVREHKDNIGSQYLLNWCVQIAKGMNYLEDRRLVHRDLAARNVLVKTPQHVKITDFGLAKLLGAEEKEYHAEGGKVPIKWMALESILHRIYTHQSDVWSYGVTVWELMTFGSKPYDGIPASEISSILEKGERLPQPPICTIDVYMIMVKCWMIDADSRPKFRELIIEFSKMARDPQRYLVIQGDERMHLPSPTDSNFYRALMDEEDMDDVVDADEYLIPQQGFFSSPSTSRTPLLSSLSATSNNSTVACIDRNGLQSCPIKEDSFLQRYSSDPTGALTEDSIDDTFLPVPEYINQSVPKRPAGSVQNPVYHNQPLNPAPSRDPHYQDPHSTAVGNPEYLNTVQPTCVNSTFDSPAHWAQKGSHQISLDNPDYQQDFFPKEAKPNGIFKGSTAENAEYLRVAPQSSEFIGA
Test: WT-EGFR Kinase Assay (TR-FRET, 2 mM ATP)
Format: biochemical
Conditions: EGFR Wildtyp 2 mM ATP IC50 [mol/l] (median), Table 4

Solved cases below.
{"COMPOUND": "O=C(Nc1cc(-c2[nH]c3cc(F)cnc3c2-c2ccccc2)ccn1)C(CC(F)F)c1ccc(F)cc1 (single isomer, unassigned; (-)) [Example 20]", "IC50": "> 20 µM"}
{"COMPOUND": "O=C(Nc1cc(-c2[nH]c3ccc(F)nc3c2-c2cc(F)ccn2)ccn1)C(CC(F)F)c1ccc(F)cc1 (single isomer, unassigned) [Example 96]", "IC50": "> 20 µM"}
{"COMPOUND": "COc1cc(F)nc2c(-c3ccccn3)c(-c3ccnc(NC(=O)C(CC(F)F)c4ccc(F)cc4)c3)[nH]c12 (racemic) [Example 39]", "IC50": "> 20 µM"}
{"COMPOUND": "O=C(Nc1cc(-c2[nH]c3c(CC4CC4)cc(F)nc3c2-c2ccccn2)ccn1)C(CC(F)F)c1ccc(F)cc1 (racemic) [Example 46]", "IC50": "> 20 µM"}
{"COMPOUND": "O=C(Nc1cc(-c2[nH]c3c(C4CCCO4)cc(F)nc3c2-c2ccccn2)ccn1)C(CC(F)F)c1ccc(F)cc1 (single isomer, unassigned) [Example 115]", "IC50": "19.6 µM"}

Output reported IC50 of the compound O=C(Nc1cc(-c2[nH]c3c(O[C@H]4CCOC4)ncnc3c2-c2ccccn2)ccn1)C(CC(F)F)c1ccc(F)cc1 (mixture of isomers) [Example 72] on wild-type Epidermal Growth Factor Receptor (EGFR) (Homo sapiens).
> 20 µM
